B1: PhoQ; a variant is named by its letters at X, in order, P23837 (parent)
chain: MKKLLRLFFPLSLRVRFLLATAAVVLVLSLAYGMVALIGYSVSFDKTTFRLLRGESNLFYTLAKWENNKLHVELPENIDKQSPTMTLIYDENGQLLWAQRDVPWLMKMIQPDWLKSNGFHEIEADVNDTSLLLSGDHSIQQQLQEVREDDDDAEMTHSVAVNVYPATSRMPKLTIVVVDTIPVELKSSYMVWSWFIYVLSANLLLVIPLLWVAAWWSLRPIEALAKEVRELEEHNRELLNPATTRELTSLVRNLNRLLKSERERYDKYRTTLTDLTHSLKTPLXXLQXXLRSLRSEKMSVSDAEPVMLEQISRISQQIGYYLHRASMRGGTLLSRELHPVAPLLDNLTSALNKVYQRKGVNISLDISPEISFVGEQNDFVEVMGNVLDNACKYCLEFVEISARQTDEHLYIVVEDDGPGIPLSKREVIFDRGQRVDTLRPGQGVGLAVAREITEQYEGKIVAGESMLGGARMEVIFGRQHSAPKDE

- Variants of: B1
- assay_info: enrichment ratio after two sorts for PhoP signalling (ratio (wild type AVST 3.29)); higher = more functional
- settings: with PhoP (E. coli)
Over roughly 140,000 sequences, “enrichment ratio after two sorts for PhoP signalling” has its median near 0; the highest 2% begin near 11. This is one part of a sample in which the highest values are shown more often than they occur.
# enrichment ratio >= 5 gives TRUE, anything below gives FALSE

Assess whether reported enrichment ratio for `TDLT` sits at 5 or higher.
TRUE

New cases:
Is reported enrichment ratio greater than or equal to 5 here: `LTLS`
FALSE

Check the entry `MFVW` : does enrichment ratio equal or exceed 5?
FALSE
